Molecular target: human μ-opiate receptor (Homo sapiens, UniProt P35372)
Sequence (P35372 whole entry): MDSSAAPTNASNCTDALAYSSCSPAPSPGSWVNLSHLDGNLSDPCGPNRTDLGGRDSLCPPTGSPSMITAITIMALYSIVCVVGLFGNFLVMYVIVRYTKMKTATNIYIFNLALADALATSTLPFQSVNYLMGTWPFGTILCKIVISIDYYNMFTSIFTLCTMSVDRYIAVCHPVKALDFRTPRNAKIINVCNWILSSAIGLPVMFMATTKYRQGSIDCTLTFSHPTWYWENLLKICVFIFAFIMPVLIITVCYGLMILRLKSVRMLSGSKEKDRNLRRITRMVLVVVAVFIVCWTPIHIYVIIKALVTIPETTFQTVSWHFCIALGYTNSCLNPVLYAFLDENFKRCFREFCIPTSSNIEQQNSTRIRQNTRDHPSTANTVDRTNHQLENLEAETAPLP
Experiment: Affinity for the human μ-opiate receptor ([3H]-naloxone displacement, SPA, CHO-K1 membrane preparation)
Assay type: binding
Settings: read-out: μ-Opioid receptor, Ki
pKi: −log10 of the molar value. Where a name gives a salt, the structure may show the parent alone.
Lab note: compare pKi against 8. Equal or greater, write True. Smaller, write False.

[
  {
    "MOLECULE": "CN(C)C(c1cccc(F)c1)C1CCC(CCNC(=O)c2ccc(Cl)cc2)CC1 (stereo not shown)",
    "EXPERIMENTAL_TARGET": "human μ-opiate receptor (Homo sapiens, UniProt P35372)",
    "DISCRETE_LABEL": "False"
  }
]

Task item: Hi, just wondering whether CSc1ncccc1C(=O)NCC1CCC(C(c2ccccc2)N(C)C)CC1 (stereo not shown) shows pKi of 8 or higher.
Reply: True

Task item: Then this molecule: CSc1ncccc1C(=O)NCCC1CCC(C(c2ccccc2)N(C)C)CC1 (stereo not shown)
Reply: False

Task item: Then this molecule: CC(Oc1ccccc1)C(=O)NCC1CCC(C(c2cccc(F)c2)N(C)C)CC1 (stereo not shown) [compound 346]
Reply: False

Task item: Then this molecule: CCC(C(=O)NC1CCC(C(c2cccc(F)c2)N(C)C)CC1)c1ccccc1 (stereo not shown)
Reply: False

Task item: Then this molecule: COc1ccc(N(C(C)=O)C2CCC(C(c3ccccc3)N(C)C)CC2)cc1 (stereo not shown) [compound 99, hydrochloride]
Reply: False
